Target: PD-1/PD-L1 interaction (Homo sapiens)
Construct: PD-1 Effector Jurkat T cells
Sequence (Q9NZQ7 19-290): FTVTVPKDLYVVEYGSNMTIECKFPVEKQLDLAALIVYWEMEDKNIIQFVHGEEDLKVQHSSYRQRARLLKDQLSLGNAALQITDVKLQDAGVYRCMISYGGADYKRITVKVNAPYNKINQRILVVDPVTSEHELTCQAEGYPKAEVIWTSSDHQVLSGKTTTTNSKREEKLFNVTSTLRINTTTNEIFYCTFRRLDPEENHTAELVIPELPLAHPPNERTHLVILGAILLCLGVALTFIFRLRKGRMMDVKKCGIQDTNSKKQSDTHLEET
Assay: PD-1/PD-L1 Blockade Bioassay (Promega J1252; NFAT cellular assay)
Settings: PD-1 Effector Jurkat cells co-cultured with PD-L1 aAPC/CHO-K1 cells for 6 h; NFAT-RE luminescence; three replications
Quick rule for you: EC50 under 200 nM gets T, anything else gets F.

[[record]]
compound = "COc1cc(C(=O)Nc2cccc(-c3cccc(NC(=O)c4cc(OC)c(CN(C)CCO)cn4)c3C)c2C)ncc1CN[C@@H](C)CO"
class = "T"

[[record]]
compound = "COc1cc(C(=O)Nc2cccc(-c3cccc(NC(=O)c4cc(OC)c(CNCCCO)cn4)c3C)c2C)ncc1CNCCO"
class = "F"

[[record]]
compound = "COc1cc(C(=O)Nc2cccc(-c3cccc(NC(=O)c4ccc(CN(C)CCO)cn4)c3C)c2C)ncc1CN[C@@H](C)CO"
class = "T"

[[record]]
compound = "COc1cc(C(=O)Nc2cccc(-c3cccc(NC(=O)c4ccc(CN(C)CCO)cn4)c3C)c2C)ncc1CN[C@@H]1CCC[C@H]1O [Compound R1_C451]"
class = "T"

[[record]]
compound = "COc1cc(C(=O)Nc2cccc(-c3cccc(NC(=O)c4cc(OC)c(CN[C@@H](C)CO)cn4)c3C)c2C)ncc1CN[C@H]1CCC[C@@H]1O"
class = "T"

